- Assayed system: Recombinant full-length human IDO1 (Homo sapiens (Human))
- Sequence (P14902 whole entry): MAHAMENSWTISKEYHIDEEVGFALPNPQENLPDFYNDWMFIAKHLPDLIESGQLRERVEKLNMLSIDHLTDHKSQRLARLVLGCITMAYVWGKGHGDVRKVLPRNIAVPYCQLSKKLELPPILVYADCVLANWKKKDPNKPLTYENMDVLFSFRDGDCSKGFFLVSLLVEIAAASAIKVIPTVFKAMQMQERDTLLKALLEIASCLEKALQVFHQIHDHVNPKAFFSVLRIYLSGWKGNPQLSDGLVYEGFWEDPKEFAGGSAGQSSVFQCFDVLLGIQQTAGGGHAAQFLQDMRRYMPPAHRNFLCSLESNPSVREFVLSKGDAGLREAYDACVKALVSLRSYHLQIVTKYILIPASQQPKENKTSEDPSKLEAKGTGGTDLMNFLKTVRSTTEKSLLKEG
- Assay details: IDO1 enzymatic assay (IDO inhibitory activity)
- Type: biochemical
- Test settings: 2 nM enzyme, 5 μM L-tryptophan, pH6.5, 30 min pre-incubation, NFK quantified by LCMS; mean values if measured multiple times; read-out: hIDO activity (IC50 in nM)
Response field label takes Condition met when IC50 is strictly below 70 nM and Condition not met in all other cases.

Past entries and their recorded results:
CC1(C)CC(C(O)c2c(C3CC3)sc3cncn23)C1 (racemic) [Example 36]: Condition met
CC1CC(C)(C)CC1C(O)c1c(C2CC2)sc2cncn12 (stereo not shown) [Example 120]: Condition not met
CC1(C(O)c2c(C3CC3)sc3cncn23)CCCCC1 (racemic) [Example 105]: Condition met
OC(c1c(C2CC2)sc2cncn12)C1CCCCCC1 (racemic) [Example 165]: Condition met
OC(CC1CCC(C2CCC2)CC1)c1c(C2CC2)sc2cncn12 (racemic) [Example 87]: Condition not met
CC1(C)CCC(C(O)c2c(C(F)(F)F)sc3cncn23)CC1 (racemic) [Example 161]: Condition met

Now turn to the next compound.
Does the reported IC50 of CC1(C)CC[C@@H]([C@H](O)c2c(C3CC3)sc3cncn23)C1 [Example 47a] stay below 70 nM?
Condition met

====

- Assayed system: Recombinant full-length human IDO1 (Homo sapiens (Human))
- Assay details: IDO1 enzymatic assay (IDO inhibitory activity)
- Assay type: biochemical
- Test settings: 2 nM enzyme, 5 μM L-tryptophan, pH6.5, 30 min pre-incubation, NFK quantified by LCMS; mean values if measured multiple times; read-out: hIDO activity (IC50 in nM)
Consider the following compounds; for each one, report its log10 IC50.
Friendly reminder: values = log10 of IC50, unit nM.

Consider the following illustrative entries.
OC(c1c(C2CC2)sc2cncn12)C1CCC(C2CCC2)CC1 (racemic): 1.85
CC1([C@H](O)c2c(C3CC3)sc3cncn23)CCCC1 [Example 48a]: 0.64
CC(C)(C)C1CCC(CC(O)c2c(C3CC3)sc3cncn23)CC1 (racemic): 2.98
OC(c1c(C2CC2)sc2cncn12)C1CCCC1 (racemic): 1.06

Now let's try a different one.
What does the record list as log10 IC50 for OC(CC1CCC(C2CCCC2)CC1)c1c(C2CC2)sc2cncn12 (racemic) ?
2.88

====

- Assayed system: Recombinant human TDO comprising amino acids 19-407 (Homo sapiens (Human), UniProt P48775)
- Sequence (P48775 19-406 limits assumed): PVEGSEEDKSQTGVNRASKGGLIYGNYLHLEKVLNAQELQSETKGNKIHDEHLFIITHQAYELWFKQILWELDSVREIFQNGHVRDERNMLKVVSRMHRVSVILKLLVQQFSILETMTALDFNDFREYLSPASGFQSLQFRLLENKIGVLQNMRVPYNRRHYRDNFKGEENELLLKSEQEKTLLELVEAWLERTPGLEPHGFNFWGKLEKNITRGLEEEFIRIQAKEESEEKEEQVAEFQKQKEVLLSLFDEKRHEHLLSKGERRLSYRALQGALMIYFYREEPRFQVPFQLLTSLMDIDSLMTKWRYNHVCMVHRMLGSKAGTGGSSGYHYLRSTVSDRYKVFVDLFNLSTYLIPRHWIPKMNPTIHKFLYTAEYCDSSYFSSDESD
- Assay details: TDO2 enzymatic assay (TDO inhibitory activity)
- Format: biochemical
- Test settings: 15 nM enzyme, 200 μM L-tryptophan, pH7, 30 min pre-incubation, NFK quantified by LCMS; mean values if measured multiple times; read-out: hTDO activity (IC50 in nM)
Measurement name: log10(IC50) (log10 of the value in nM)
Friendly reminder: values = log10 of IC50, unit nM.

Consider the following illustrative entries.
CC1CCC(C(O)c2c(C3CC3)sc3cncn23)C1 (stereo not drawn) [Example 30]: 2.66
Cc1cc(-c2sc3cncn3c2C(O)C2CCCCC2)cs1 (racemic) [Example 153]: 2.93
OC(c1ccc(F)cc1)c1c(C2CC2)sc2cncn12 (racemic) [Example 144]: 2.68
CCCc1sc2cncn2c1C(O)CC1CCCCC1 (racemic) [Example 129]: 2.77
OC(CC1CCCC(C(F)(F)F)C1)c1c(C2CC2)sc2cncn12 (stereo not drawn) [Example 102]: 2.91

Need log10(IC50) for each of these molecules.
1. Cc1sc2cncn2c1C(O)C1(C)CCCCC1 (racemic) [Example 174]
2. OC(c1c(C2CC2)sc2cncn12)C1CCCC1Cc1ccccc1 (stereo not drawn) [Example 91]
3. OC(c1c(C2CC2)sc2cncn12)C1CCC1 (racemic) [Example 43]
4. CC1([C@H](O)c2c(C3CC3)sc3cncn23)CCCC1 [Example 48a]

1. 1.58
2. 3.21
3. 2.96
4. 1.63
